Molecular target: T1, human UCN1 peptide (human, UniProt P55089 83-122)
T1 peptide (looked up): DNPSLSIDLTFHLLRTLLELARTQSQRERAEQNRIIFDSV
Experiment: cell-based or functional assay
quantity-kind: CHO-CRE-hCRHR1 1 nM hUCH1 IC50 (nM)
Answer format: numeric, nM implied, no suffix.

# annotated cases, reported CHO-CRE-hCRHR1 1 nM hUCH1 IC50 shown
PR302341-28 (antibody, human IgG1, kappa, V domains shown, Humanized, PTM-removed variant of PR302341) VH: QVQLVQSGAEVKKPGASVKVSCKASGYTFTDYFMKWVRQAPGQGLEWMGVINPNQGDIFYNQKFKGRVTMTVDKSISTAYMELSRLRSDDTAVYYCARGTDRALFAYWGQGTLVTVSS VL: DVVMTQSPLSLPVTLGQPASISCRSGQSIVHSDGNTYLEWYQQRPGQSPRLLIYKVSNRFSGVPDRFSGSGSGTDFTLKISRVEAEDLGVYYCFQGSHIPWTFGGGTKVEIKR	33
PR302341-48 (antibody, human IgG1, kappa, V domains shown, Humanized, PTM-removed variant of PR302341) VH: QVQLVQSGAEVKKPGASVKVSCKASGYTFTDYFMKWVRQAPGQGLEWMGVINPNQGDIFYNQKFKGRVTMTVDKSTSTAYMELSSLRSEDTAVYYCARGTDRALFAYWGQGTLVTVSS VL: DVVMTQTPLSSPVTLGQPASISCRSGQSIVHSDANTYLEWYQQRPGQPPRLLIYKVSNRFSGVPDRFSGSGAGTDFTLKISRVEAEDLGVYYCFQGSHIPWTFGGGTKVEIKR	30

Continue with the binder presented below.
Exercise: Identify measured CHO-CRE-hCRHR1 1 nM hUCH1 IC50 associated with PR302341-55 (antibody, human IgG1, kappa, V domains shown, Humanized, PTM-removed variant of PR302341) VH: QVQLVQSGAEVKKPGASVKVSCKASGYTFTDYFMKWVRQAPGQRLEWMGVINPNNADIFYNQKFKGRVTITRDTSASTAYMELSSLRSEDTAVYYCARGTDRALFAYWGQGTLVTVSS VL: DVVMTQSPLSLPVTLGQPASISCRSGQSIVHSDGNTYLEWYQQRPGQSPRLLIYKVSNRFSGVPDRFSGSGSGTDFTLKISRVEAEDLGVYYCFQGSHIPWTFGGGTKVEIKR
Key: 28
